- Tested on: S. typhimurium/E. coli reverse mutation, colony counts
- measurement protocol: Bacterial reverse mutation test (aka Ames test) summary data;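 note: His-minus Salmonella and trp-minus E. coli WP2 uvrA pKM101 with or without liver S9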
Records with an inconclusive call do not appear. The source made the active and inactive calls. The rule behind the calls is not given here.
readout name: outcome

CN(Cc1cnc2nc(N)nc(N)c2n1)c1c(Cl)cc(C(=O)N[C@@H](CCC(=O)O)C(=O)O)cc1Cl ... active; weakly positive
C=CCCC#N ... inactive; negative
CC=Cc1ccc(O)c(OC)c1 ... inactive; negative
CC(=O)c1ccc(Cl)c(Cl)c1Cl ... active; positive
Nc1ccc(N=Nc2ccccc2)c(N)n1 ... active; positive

Data request: May I ask what outcome has been recorded for `O=c1cc(O)nc[nH]1` ?
Data returned: inactive; negative

Data request: May I ask what outcome has been recorded for `Cc1cc(N=Nc2c(O)ccc3ccccc23)c(S(=O)(=O)O)cc1Cl` ?
Data returned: active; weakly positive

Data request: May I ask what outcome has been recorded for `CCCCC=O` ?
Data returned: inactive; negative

Data request: May I ask what outcome has been recorded for `Oc1c(Br)cc(Br)cc1Br` ?
Data returned: inactive; negative

Data request: May I ask what outcome has been recorded for `COC(C)=O` ?
Data returned: inactive; negative

---

- Test system: S. typhimurium/E. coli reverse mutation, colony counts
- measurement protocol: Bacterial reverse mutation test (aka Ames test) summary data;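 note: His-minus Salmonella and trp-minus E. coli WP2 uvrA pKM101 with or without liver S9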
Results filed as inconclusive are left out. Active and inactive are the calls of the source. How the calls were made is not given here.
Answer with one of the outcomes active, inactive

Data request: Look up the recorded call for `Cc1ccc2c(c1N)C(=O)c1ccccc1C2=O` in this test.
Data returned: active

Data request: Look up the recorded call for `CCCCCN(CCCCC)CCCCC` in this test.
Data returned: inactive

Data request: Look up the recorded call for `Clc1ccccn1` in this test.
Data returned: active

Data request: Look up the recorded call for CCCCC(CC)COS(=O)(=O)O (configuration not stated) in this test.
Data returned: inactive

Data request: Look up the recorded call for `COc1cc(-c2ccc(N=Nc3ccc4c(S(=O)(=O)O)cc(S(=O)(=O)O)c(N)c4c3O)c(OC)c2)ccc1N=Nc1ccc2c(S(=O)(=O)O)cc(S(=O)(=O)O)c(N)c2c1O` in this test.
Data returned: active

Data request: Look up the recorded call for `O=[N+]([O-])c1ccc(Nc2ccccc2O)c([N+](=O)[O-])c1` in this test.
Data returned: active

Data request: Look up the recorded call for `OC[C@@]1(O)CO[C@](O)(CO)CO1` in this test.
Data returned: active

Data request: Look up the recorded call for CC(C)(c1cc(Br)c(OCC(Br)CBr)c(Br)c1)c1cc(Br)c(OCC(Br)CBr)c(Br)c1 (configuration not stated) in this test.
Data returned: inactive

Data request: Look up the recorded call for `Clc1ccc(C(Cl)(Cl)Cl)cc1Cl` in this test.
Data returned: active

Data request: Look up the recorded call for C=CCC1(C(C)C#CCC)C(=O)N=C(O)N(C)C1=O (configuration not stated) in this test.
Data returned: inactive

Data request: Look up the recorded call for `CNC[C@H](O)c1ccc(O)c(O)c1` in this test.
Data returned: active

Data request: Look up the recorded call for `COC(=O)Nc1nc2ccccc2[nH]1` in this test.
Data returned: active

---

- Test system: S. typhimurium/E. coli reverse mutation, colony counts
- measurement protocol: Bacterial reverse mutation test (aka Ames test) summary data;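 note: His-minus Salmonella and trp-minus E. coli WP2 uvrA pKM101 with or without liver S9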
Records with an inconclusive call do not appear. Active and inactive are the calls of the source. How the calls were made is not given here.
Answer with one of the outcomes class 1 (active), class 0 (inactive)

Data request: Look up the recorded call for `COc1cc(-c2ccc(N=Nc3c(S(=O)(=O)O)cc4cc(S(=O)(=O)O)cc(O)c4c3O)c(OC)c2)ccc1N=Nc1c(S(=O)(=O)O)cc2cc(S(=O)(=O)O)cc(O)c2c1O` in this test.
Data returned: class 0

Data request: Look up the recorded call for `CCNc1ccc([N+](=O)[O-])cc1C` in this test.
Data returned: class 1

Data request: Look up the recorded call for COC(=O)C1CCC(C(=O)OC)CC1 (stereo not drawn) in this test.
Data returned: class 1

Data request: Look up the recorded call for OCC(Cl)CCl (stereo not drawn) in this test.
Data returned: class 1

Data request: Look up the recorded call for `NC1CCCCC1` in this test.
Data returned: class 0

Data request: Look up the recorded call for `OC[P+](CO)(CO)CO` in this test.
Data returned: class 0

Data request: Look up the recorded call for `O=[N+]([O-])c1ccc(Nc2ccc(Nc3ccccc3)c(S(=O)(=O)O)c2)c([N+](=O)[O-])c1` in this test.
Data returned: class 1

Data request: Look up the recorded call for `BrC(Br)C(Br)Br` in this test.
Data returned: class 0

Data request: Look up the recorded call for `O=C(Cl)C(Cl)Cl` in this test.
Data returned: class 1

Data request: Look up the recorded call for `C[n+]1cccc(C(=O)[O-])c1` in this test.
Data returned: class 0

Data request: Look up the recorded call for `Cc1c(N)cccc1N` in this test.
Data returned: class 1

Data request: Look up the recorded call for `Clc1nc(Cl)nc(Nc2ccccc2Cl)n1` in this test.
Data returned: class 0

Data request: Look up the recorded call for `O=C1NS(=O)(=O)c2ccccc21` in this test.
Data returned: class 0
